Examples of molecules with documented log10 MIC follow.
test system: Mycobacterium tuberculosis H37Rv strain; experiment: Antimycobacterial activity assay (MIC, 7H11 agar); type: cell-based; settings: Mycobacterium tuberculosis, H37RV, Table 3; Mtb H37Rv
attribute.measured: log10 MIC (log10 of the value in µM)

INSERT INTO assay_data (molecule, assay_system, obs_value) VALUES
  ('COc1ccc(NS(=O)(=O)c2ccc([N+](=O)[O-])cc2[N+](=O)[O-])cc1 [Compound 7]', 'Mycobacterium tuberculosis H37Rv strain', 0.64),
  ('O=[N+]([O-])c1ccc(S(=O)(=O)NCc2ccccc2)c([N+](=O)[O-])c1 [Compound 1, N-benzyl-2,4-dinitrophenylsulfonamide]', 'Mycobacterium tuberculosis H37Rv strain', -0.82),
  ('COC(=O)C1CCCN1S(=O)(=O)c1ccc([N+](=O)[O-])cc1[N+](=O)[O-] (stereo not shown) [Compound 22]', 'Mycobacterium tuberculosis H37Rv strain', 1.54),
  ('O=[N+]([O-])c1ccc(S(=O)(=O)N2CCCCC2)c([N+](=O)[O-])c1 [Compound 24]', 'Mycobacterium tuberculosis H37Rv strain', 0.40),
  ('O=[N+]([O-])c1ccc(S(=O)(=O)N2CCOCC2)c([N+](=O)[O-])c1 [Compound 23]', 'Mycobacterium tuberculosis H37Rv strain', 1.29),
  ('O=[N+]([O-])c1ccc(S(=O)(=O)Nc2ccccc2)c([N+](=O)[O-])c1 [Compound 6, N-phenyl, 2,4-dinitrophenylsulfonamide]', 'Mycobacterium tuberculosis H37Rv strain', 0.99);

* * *

experiment: Cysteine-activated sulfur dioxide release, ion chromatography analysis of sulfite; conditions: 30 min after treatment of compound (100 1M) with 10 equiv of cysteine in pH 7.4 phosphate buffer
attribute.measured: SO2 yield, 30 min (µM)

INSERT INTO measurements (compound, measure_unit, obs_value) VALUES
  ('CCCN(Cc1ccccc1)S(=O)(=O)c1ccc([N+](=O)[O-])cc1[N+](=O)[O-] [Compound 16]', 'µM', 96),
  ('CN(CCc1ccccc1)S(=O)(=O)c1ccc([N+](=O)[O-])cc1[N+](=O)[O-] [Compound 19]', 'µM', 84),
  ('O=[N+]([O-])c1ccc(S(=O)(=O)NCc2ccccc2C(F)(F)F)c([N+](=O)[O-])c1 [Compound 5]', 'µM', 84),
  ('O=[N+]([O-])c1ccc(S(=O)(=O)NCc2ccc(Cl)cc2)c([N+](=O)[O-])c1 [Compound 3]', 'µM', 96);

* * *

assay: Cysteine-activated sulfur dioxide release, ion chromatography analysis of sulfite; settings: Table 3; 30 min after treatment of compound (100 μM) with 10 equiv of cysteine in pH 7.4 phosphate buffer
attribute.measured: SO2 yield, 30 min (µM)

INSERT INTO measurements (compound, attribute_measured, obs_value) VALUES
  ('CCCN(Cc1ccccc1)S(=O)(=O)c1ccc([N+](=O)[O-])cc1[N+](=O)[O-]', 'SO2 yield, 30 min', 96),
  ('O=[N+]([O-])c1ccc(S(=O)(=O)N2CCCCC2)c([N+](=O)[O-])c1', 'SO2 yield, 30 min', 91),
  ('O=[N+]([O-])c1ccc(S(=O)(=O)NCc2ccccc2)c([N+](=O)[O-])c1 [Compound 1, N-benzyl-2,4-dinitrophenylsulfonamide]', 'SO2 yield, 30 min', 100),
  ('CN1CCN(S(=O)(=O)c2ccc([N+](=O)[O-])cc2[N+](=O)[O-])CC1', 'SO2 yield, 30 min', 88),
  ('O=[N+]([O-])c1ccc(S(=O)(=O)Nc2cccc(F)c2)c([N+](=O)[O-])c1', 'SO2 yield, 30 min', 24),
  ('COC(=O)C(C)NS(=O)(=O)c1ccc([N+](=O)[O-])cc1[N+](=O)[O-] (centres unmarked)', 'SO2 yield, 30 min', 93),
  ('COc1ccc(NS(=O)(=O)c2ccc([N+](=O)[O-])cc2[N+](=O)[O-])cc1', 'SO2 yield, 30 min', 79.5),
  ('O=[N+]([O-])c1ccc(S(=O)(=O)N2CCOCC2)c([N+](=O)[O-])c1', 'SO2 yield, 30 min', 96);
